# systemUnderTest: T1, AFP158/HLA-A*02:01 complex (human)
# T1 construct: flowed as analyte in SPR
# assayProcedure: SPR, crude scFv captured, pMHC analyte;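 further: pMHC analyte injected at three concentrations, association phase of one hundred seconds, then running buffer for dissociation, rates fitted from both curves, KD derived from the rates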
measurementType: kon (M⁻¹ s⁻¹)
Write it as a number; the unit M⁻¹ s⁻¹ goes unstated.

AS170036 VL1VH1-98Q108D (scFv, also called 38-AS170036 VL1VH1-98Q108D) scFv: QSALTQPRSVSGSPGQSVTISCAGTSSDVGSENYVSWYQQHPGKAPKLMIYQVNKRASGVPDRFSGSKSGNTASLTISGLQAEDEADYYCASYRSSDQNIVFGGGTKLTVLGGGGSGGGGSGGGGSEVQLVESGGGLVQPGGSLRLSCAASGFTFSSYAMSWVRQAPGKGLEWVSTINSGTGSPYYADSVKGRFTISRDNSKNTLYLQMNSLRAEDTAVYYCAKNFFDGSWFLDPPAMDYWGQGTLVTVSSHHHHHH :: 330000

Task item: Item under review: AS170036 VL1VH1-56N98F (scFv, also called 04-AS170036 VL1VH1-56N98F) scFv: QSALTQPRSVSGSPGQSVTISCAGTSSDVGSENYVSWYQQHPGKAPKLMIYQVNKRASGVPDRFSGSKSGNTASLTISGLQAEDEADYYCASYRSSDFNIVFGGGTKLTVLGGGGSGGGGSGGGGSEVQLVESGGGLVQPGGSLRLSCAASGFTFSSYAMSWVRQAPGKGLEWVSTINSGTNSPYYADSVKGRFTISRDNSKNTLYLQMNSLRAEDTAVYYCAKNFFDGSWFLGPPAMDYWGQGTLVTVSSHHHHHH . Reported kon?
Reply: 360000
